- Assay: Metabolic stability in monkey liver microsomes assessed as intrinsic clearance per mg protein at 0.2 uM measured upto 30 mins by LC-MS/MS analysis
- Format: ADME, Macaca mulatta, Microsome
- Stated conditions: rhesus monkey, read-out: CLH
Positions of bridges follow the written chain, without caps; N, C: chain ends. Non-standard residues stand in square brackets, D forms with d. Residues, ends and D or L forms follow the SMILES beside them. *: point of attachment. hPhe(3-Cl-4-CF3) = N[C@@H](CCc1ccc(C(F)(F)F)c(Cl)c1)C(=O)O; NMeGly(cPent) = CN[C@H](C(=O)O)C1CCCC1; NMeCha = CN[C@@H](CC1CCCCC1)C(=O)O; NMeD = CN[C@@H](CC(=O)O)C(=O)O; NMeL = CN[C@@H](CC(C)C)C(=O)O; Morpholide = C1CN(*)CCO1; NMeA = CN[C@@H](C)C(=O)O; Piperidide = C1CCN(*)CC1; Ac5c = NC1(C(=O)O)CCCC1; Aze = O=C(O)[C@@H]1CCN1; Sar = CNCC(=O)O
Field: microsomal CLint at 0.2 µM. Provide a value for each of the compounds that follow.
Numbers only, in µL/min/mg.

Return reported microsomal CLint at 0.2 µM values for all items listed beneath this line.
1. CC[C@H](C)[C@@H]1NC(=O)[C@H](CC(C)C)N(C)C(=O)C[C@@H](C(=O)N2CCCCC2)N(C)C(=O)[C@H](C2CCCC2)N(C)C(=O)C2(CCCC2)NC(=O)[C@@H]2CCCN2C(=O)[C@H](CCc2ccc(C(F)(F)F)c(Cl)c2)NC(=O)CN(C)C(=O)[C@H](CC2CCCCC2)N(C)C(=O)[C@@H]2CCN2C(=O)[C@H](C)N(C)C1=O ([NMeL]I[NMeA][Aze][NMeCha][Sar][hPhe(3-Cl-4-CF3)]P[Ac5c][NMeGly(cPent)][NMeD]-Piperidide; lactam N-11)
2. CC[C@H](C)[C@@H]1NC(=O)[C@H](CC(C)C)N(C)C(=O)C[C@@H](C(=O)N2CCOCC2)N(C)C(=O)[C@H](C2CCCC2)N(C)C(=O)C2(CCCC2)NC(=O)[C@@H]2CCCN2C(=O)[C@H](CCc2ccc(C(F)(F)F)c(Cl)c2)NC(=O)CN(C)C(=O)[C@H](CC2CCCCC2)N(C)C(=O)[C@@H]2CCN2C(=O)[C@H](C)N(C)C1=O ([NMeL]I[NMeA][Aze][NMeCha][Sar][hPhe(3-Cl-4-CF3)]P[Ac5c][NMeGly(cPent)][NMeD]-Morpholide; lactam N-11)

Result:
1. 32
2. 43
